measurement_target: Mitogen-activated protein kinase 7 (Homo sapiens, UniProt Q13164)
Sequence (Q13164 whole entry, the tested form may be a part): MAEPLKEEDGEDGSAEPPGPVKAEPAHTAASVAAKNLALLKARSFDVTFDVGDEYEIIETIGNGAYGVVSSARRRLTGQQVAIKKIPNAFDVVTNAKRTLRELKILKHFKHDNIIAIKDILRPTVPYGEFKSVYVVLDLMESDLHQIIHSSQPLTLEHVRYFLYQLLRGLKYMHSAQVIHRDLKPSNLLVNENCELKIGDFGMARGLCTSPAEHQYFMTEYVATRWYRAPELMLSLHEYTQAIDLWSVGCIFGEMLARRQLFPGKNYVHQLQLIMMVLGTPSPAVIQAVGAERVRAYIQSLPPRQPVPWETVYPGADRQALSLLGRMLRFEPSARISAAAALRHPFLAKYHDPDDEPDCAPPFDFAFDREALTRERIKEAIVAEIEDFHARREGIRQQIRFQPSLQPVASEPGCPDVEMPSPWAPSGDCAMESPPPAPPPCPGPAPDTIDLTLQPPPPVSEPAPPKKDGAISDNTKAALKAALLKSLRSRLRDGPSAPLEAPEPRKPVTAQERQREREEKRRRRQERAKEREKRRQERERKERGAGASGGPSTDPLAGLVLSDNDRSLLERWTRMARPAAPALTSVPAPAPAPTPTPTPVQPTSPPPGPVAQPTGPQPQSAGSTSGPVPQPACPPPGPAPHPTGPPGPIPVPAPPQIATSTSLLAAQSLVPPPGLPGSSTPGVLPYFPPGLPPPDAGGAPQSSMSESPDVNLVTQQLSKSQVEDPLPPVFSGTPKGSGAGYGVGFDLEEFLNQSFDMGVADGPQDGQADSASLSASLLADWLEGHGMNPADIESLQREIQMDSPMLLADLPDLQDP
method_notes: Inhibition of recombinant N-terminal His-tagged human ERK5 (2 to 409 residues) co-expressed with GST-tagged human truncated MEK5DD lacking N-terminal 11 residues (13 to 448 residues) in Sf9 insect cells assessed as substrate peptide phosphorylation using (LVEPLTPSGEAPNQ(K-5FAM)-COOH as substrate incubated for 2 hrs by IMAP fluorescence polarisation assay
Classify by IC50. Ranges: I: < 4 µM; II: ≥ 4 µM and < 20 µM; III: ≥ 20 µM

O=C(Nc1cccnc1)c1cc(C(=O)c2c(F)cccc2F)c[nH]1    I

Sort into band: "O=C(c1cccc(Cl)c1)c1c[nH]c(C(=O)NCc2ccncc2)c1"
II

Sort into band: "O=C(NCc1ccncc1)c1cc(C(=O)c2c(F)cccc2F)c[nH]1"
III

Sort into band: "O=C(c1ccc(F)cc1)c1c[nH]c(C(=O)NCc2ccncc2)c1"
III

Sort into band: "O=C(c1ccc(Cl)cc1)c1c[nH]c(C(=O)NCc2ccncc2)c1"
III

Sort into band: "O=C(NCc1ccncc1)c1cc(C(=O)c2c(Cl)cccc2Cl)c[nH]1"
II

###

Entries and their IC50
measurement_target: Mitogen-activated protein kinase 14 (Homo sapiens, UniProt Q16539)
Sequence (Q16539 whole entry): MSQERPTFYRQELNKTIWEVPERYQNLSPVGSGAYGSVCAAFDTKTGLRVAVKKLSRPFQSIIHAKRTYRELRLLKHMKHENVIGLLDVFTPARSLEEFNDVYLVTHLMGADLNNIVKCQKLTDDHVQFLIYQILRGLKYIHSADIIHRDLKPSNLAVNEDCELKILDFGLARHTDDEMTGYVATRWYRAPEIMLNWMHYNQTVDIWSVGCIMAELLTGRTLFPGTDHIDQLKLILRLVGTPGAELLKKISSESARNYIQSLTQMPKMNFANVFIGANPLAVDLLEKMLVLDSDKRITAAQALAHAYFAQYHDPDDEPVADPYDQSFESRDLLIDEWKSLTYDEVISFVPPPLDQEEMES
method_notes: Inhibition of recombinant N-terminal GST-tagged full length human p38alpha expressed in Escherichia coli cells assessed as substrate phosphorylation using Ulight-MBP peptide as substrate incubated for 1 hr by LANCE assay
Numbers only; they are read as µM.

O=C(Nc1cccnc1)c1cc(C(=O)c2c(F)cccc2Cl)c[nH]1    93.2

GET IC50 | system: Mitogen-activated protein kinase 14 (Homo sapiens, UniProt Q16539) | item: "O=C(Nc1cccnc1)c1cc(C(=O)c2c(F)cccc2F)c[nH]1"
35

GET IC50 | system: Mitogen-activated protein kinase 14 (Homo sapiens, UniProt Q16539) | item: "O=C(Nc1ccncc1)c1cc(C(=O)c2c(F)cccc2F)c[nH]1"
100

GET IC50 | system: Mitogen-activated protein kinase 14 (Homo sapiens, UniProt Q16539) | item: "O=C(NCc1ccncc1)c1cc(C(=O)c2cccc(F)c2F)c[nH]1"
2.4

GET IC50 | system: Mitogen-activated protein kinase 14 (Homo sapiens, UniProt Q16539) | item: "O=C(c1cccc(Cl)c1)c1c[nH]c(C(=O)NCc2ccncc2)c1"
6.5

GET IC50 | system: Mitogen-activated protein kinase 14 (Homo sapiens, UniProt Q16539) | item: "O=C(NCc1ccncc1)c1cc(C(=O)c2ccccc2F)c[nH]1"
0.36

GET IC50 | system: Mitogen-activated protein kinase 14 (Homo sapiens, UniProt Q16539) | item: "O=C(NCc1ccncc1)c1cc(C(=O)c2c(Cl)cccc2Cl)c[nH]1"
12.3

GET IC50 | system: Mitogen-activated protein kinase 14 (Homo sapiens, UniProt Q16539) | item: "O=C(NCc1ccncc1)c1cc(C(=O)c2c(F)cccc2F)c[nH]1"
0.58

###

method_notes: Cmax in CD1 mouse at 10 mg/kg, iv measured upto 24 hrs by LCMS analysis
Format: ADME, organism-based
Parameters: dose 10 mg/kg, route intravenous
measurement_parameters: in vivo
value_type: Cmax (µM)
Numbers only; they are read as µM.

// Input: "O=C(Nc1cccnc1)c1cc(C(=O)c2c(F)cccc2Br)c[nH]1" . Output its Cmax only.
25
